System: ATF4 luciferase reporter in HEK293T cells
Assay: ATF4-Luc assay (in vitro model of VWMD)
Type: cell-based, human
Details: Homo sapiens, HEK-293T, 7 h, HEK293T cells carrying the ATF4 luciferase reporter, 1 μg/mL tunicamycin, One Glo luminescence
Experimental: In order to test exemplary compounds of the invention in a cellular context, a stable VWMD cell line was first constructed. […] HEK293T cells carrying the ATF4 luciferase reporter were plated on polylysine coated 384-well plates (Greiner Bio-one) at 30,000 cells per well. […] Luminescence was measured using One Glo (Promega) as specified by the manufacturer. […]
pEC50: −log10 of the molar value.
Parameter: pEC50

Reference set (3 entries):
{"columns": ["Molecule", "Value"],
 "data": [
  ["COc1ncc(-c2cnn(C34CC(NC(=O)[C@@H]5C[C@H](O)c6cc(Cl)ccc6O5)(C3)C4)c2)cn1", "6.30 to 6.60"],
  ["O=C(NC12CC(n3cc(OCCOC(F)(F)F)cn3)(C1)C2)[C@H]1C[C@@H](O)c2cc(Cl)c(F)cc2O1", "> 8.00"],
  ["COc1cc2cn(C34CC(NC(=O)COc5ccc(Cl)c(Cl)c5)(C3)C4)nc2cn1", "7.30 to 8.00"]
]}

Report pEC50 for every entry below.
1. O=C(NC12CC(n3cc(N4CC(COC(F)(F)F)C4)cn3)(C1)C2)[C@H]1C[C@@H](O)c2cc(Cl)ccc2O1
2. O=C(N[C@H]1CC[C@H](n2cc(OCCOC(F)(F)F)cn2)CC1)[C@H]1C[C@H](O)c2cc(C(F)(F)F)c(F)cc2O1
3. O=C(COc1ccc(Cl)c(F)c1)N[C@H]1C[C@H]2O[C@@H]1CC2c1nnc([C@H]2C[C@@H](OC(F)(F)F)C2)o1 (mixture of isomers)

Result:
1: 7.30 to 8.00; 2: > 8.00; 3: 6.30 to 6.60

---

Test system: ATF4 luciferase reporter in HEK293T cells
Assay: ATF4-Luc assay (in vitro model of VWMD)
Assay type: cell-based, human
Details: Homo sapiens, HEK-293T, 7 h, HEK293T cells carrying the ATF4 luciferase reporter, 1 μg/mL tunicamycin, One Glo luminescence
pEC50: −log10 of the molar value.
Parameter: pEC50

Reference set (5 entries):
{"columns": ["Compound", "pEC50"],
 "data": [
  ["CC(F)(F)CCCOc1cnn(C23CC(NC(=O)[C@H]4C[C@@H](O)c5cc(Cl)ccc5O4)(C2)C3)c1", "7.30 to 8.00"],
  ["CCOc1ccc2nn(C34CC(NC(=O)COc5ccc(Cl)c(Cl)c5)(C3)C4)cc2c1", "> 8.00"],
  ["O=C(NC12CC(n3cc(N4CCC(OC(F)(F)F)C4)cn3)(C1)C2)[C@H]1C[C@@H](O)c2cc(Cl)ccc2O1 (stereo partly shown)", "> 8.00"],
  ["O=C(NC12CC(c3ccnc(OCCOC(F)(F)F)n3)(C1)C2)[C@H]1C[C@@H](O)c2cc(C(F)(F)F)c(F)cc2O1", "7.30 to 8.00"],
  ["O=C(NC12CC(n3cc(OCCCC(F)(F)F)cn3)(C1)C2)[C@H]1C[C@H](O)c2cc(C(F)(F)F)c(F)cc2O1", "7.30 to 8.00"]
]}

Report pEC50 for every entry below.
1. O=C(NC12CC(n3cc(OCCOC(F)(F)F)cn3)(C1)C2)C1CNc2cc(C(F)(F)F)c(F)cc2O1 (stereo not shown)
2. C[C@@H](COc1cnn(C23CC(NC(=O)[C@H]4C[C@@H](O)c5cc(Cl)ccc5O4)(C2)C3)c1)OC(F)(F)F

Result:
1. 7.30 to 8.00
2. 7.30 to 8.00

---

System: ATF4 luciferase reporter in HEK293T cells
Test: ATF4-Luc assay (in vitro model of VWMD)
Format: cell-based, human
Settings: Homo sapiens, HEK-293T, 7 h, HEK293T cells carrying the ATF4 luciferase reporter, 1 μg/mL tunicamycin, One Glo luminescence
Parameter: EC50

Reference set (5 entries):
{"columns": ["Molecule", "Value"],
 "data": [
  ["O=C(COc1ccc(C(F)(F)F)c(F)c1)NC12CC(n3cc(C(=O)N4CC[C@H](OC(F)(F)F)C4)cn3)(C1)C2", "< 10 nM"],
  ["O=C(NC12CC(n3cc(OCCCOC(F)(F)F)cn3)(C1)C2)[C@H]1C[C@H](O)c2cc(C(F)(F)F)c(F)cc2O1", "< 10 nM"],
  ["COc1cc2cn(C34CC(NC(=O)[C@H]5C[C@@H](O)c6cc(Cl)c(Cl)cc6O5)(C3)C4)nc2cn1", "< 10 nM"],
  ["O=C(NC12CC(n3cc(-c4ccn(C(F)(F)F)n4)cn3)(C1)C2)[C@H]1C[C@@H](O)c2cc(Cl)c(F)cc2O1", "< 10 nM"],
  ["CCOC(=O)OC[C@@H]1C[C@H]1c1cn(C23CC(NC(=O)[C@H]4C[C@@H](O)c5cc(Cl)ccc5O4)(C2)C3)nn1 (mixture of isomers)", "< 10 nM"]
]}

Query: Requested field: EC50. Item: `O=C(N[C@H]1C[C@@H](OC(F)(F)F)C1)c1cnn(C23CC(NC(=O)[C@H]4C[C@@H](O)c5cc(Cl)ccc5O4)(C2)C3)c1`
Result: 50 to 250 nM

---

Tested on: ATF4 luciferase reporter in HEK293T cells
Assay: ATF4-Luc assay (in vitro model of VWMD)
Assay type: cell-based, human
Conditions: Homo sapiens, HEK-293T, 7 h, HEK293T cells carrying the ATF4 luciferase reporter, 1 μg/mL tunicamycin, One Glo luminescence
Experimental: In order to test exemplary compounds of the invention in a cellular context, a stable VWMD cell line was first constructed. […] HEK293T cells carrying the ATF4 luciferase reporter were plated on polylysine coated 384-well plates (Greiner Bio-one) at 30,000 cells per well. […] Luminescence was measured using One Glo (Promega) as specified by the manufacturer. […]
pEC50: −log10 of the molar value.
Parameter: pEC50

Reference set (3 entries):
{"columns": ["Compound", "Value"],
 "data": [
  ["O=C(COc1ccc(Cl)c(F)c1)NC12CC(n3cc([C@H]4[C@@H]5CN(CC(F)(F)F)C[C@@H]54)cn3)(C1)C2", "> 8.00"],
  ["O=C(NC12CC(n3cc(OCCOC(F)(F)F)cn3)(C1)C2)[C@H]1C[C@H](O)c2cc(Cl)ccc2O1", "7.30 to 8.00"],
  ["O=C1CC(C(=O)NC23CC(c4nnc([C@H]5C[C@@H](OC(F)(F)F)C5)o4)(C2)C3)Oc2ccc(Cl)cc21 (stereo partly shown)", "6.60 to 7.30"]
]}

Report pEC50 for every entry below.
1. O=C(NC12CC(n3cnc(-c4ccc(OC(F)(F)F)c(F)c4F)c3)(C1)C2)[C@H]1C[C@@H](O)c2cc(Cl)ccc2O1
2. CC1(C(F)(F)F)CCCN1C(=O)c1cnn(C23CC(NC(=O)[C@H]4C[C@@H](O)c5cc(Cl)ccc5O4)(C2)C3)c1 (stereo partly shown)
3. O=C(NC12CC(n3cc(-c4ccc(OC(F)(F)F)cn4)cn3)(C1)C2)[C@H]1C[C@H](O)c2cc(Cl)c(F)cc2O1
4. O=C(NC12CC(n3cc(-c4ccc(C(F)(F)F)cn4)cn3)(C1)C2)[C@H]1C[C@H](O)c2cc(C(F)(F)F)ccc2O1

Result:
["> 8.00", "6.60 to 7.30", "> 8.00", "> 8.00"]

Report pEC50 for every entry below.
1. O=C(NC12CC(n3cnc(C(=O)N4CC(COC(F)(F)F)C4)c3)(C1)C2)[C@H]1C[C@@H](O)c2cc(Cl)ccc2O1
2. CN(CCCOC(F)(F)F)c1cnn(C23CC(NC(=O)[C@H]4C[C@@H](O)c5cc(Cl)ccc5O4)(C2)C3)c1
3. O=C(NC12CC(n3cc(COCCOC(F)(F)F)nn3)(C1)C2)[C@H]1C[C@@H](O)c2cc(Cl)c(F)cc2O1
4. O=C(NC12CC(n3cc(-c4cnn(CC(F)(F)F)c4)cn3)(C1)C2)[C@H]1C[C@@H](O)c2cc(Cl)ccc2O1
5. O=C(NC12CC(n3cc(C(=O)N4CC(COC(F)(F)F)C4)cn3)(C1)C2)[C@H]1C[C@@H](O)c2cc(Cl)c(F)cc2O1
6. Cc1ccc(-c2cnn(C34CC(NC(=O)[C@H]5C[C@@H](O)c6cc(C(F)(F)F)ccc6O5)(C3)C4)c2)nc1
7. O=C(NC12CC(n3cc(-c4cnc(C5CC5)nc4)cn3)(C1)C2)[C@H]1C[C@@H](O)c2cc(Cl)ccc2O1

Result:
7.30 to 8.00
7.30 to 8.00
> 8.00
> 8.00
> 8.00
> 8.00
> 8.00

Report pEC50 for every entry below.
1. O=C(NC12CC(n3cc([C@H]4[C@@H]5CN(CC(F)(F)F)C[C@@H]54)cn3)(C1)C2)[C@H]1C[C@@H](O)c2cc(Cl)ccc2O1
2. O=C(NC12CC(c3ccc(OCCCOC(F)(F)F)nc3)(C1)C2)[C@H]1C[C@@H](O)c2cc(Cl)ccc2O1
3. O=C(NC12CC(n3cc(-c4ccc(OC(F)(F)F)cn4)cn3)(C1)C2)[C@H]1C[C@@H](O)c2cc(F)ccc2O1 (single isomer, unassigned) [Compound 475]

Result:
> 8.00
7.30 to 8.00
> 8.00

Report pEC50 for every entry below.
1. O=C(CO[C@H]1C[C@@H](OC(F)(F)F)C1)N[C@@H]1C[C@@H]2C[C@H]1C[C@H]2NC(=O)[C@H]1C[C@@H](O)c2cc(C(F)(F)F)c(F)cc2O1
2. O=C(NC12CC(n3cc(-c4ccc(OC(F)F)nc4)cn3)(C1)C2)[C@@H]1C[C@@H](O)c2cc(Cl)ccc2O1
3. O=C(NC12CC(OCC(=O)N3CC(COC(F)(F)F)C3)(C1)C2)[C@H]1C[C@@H](O)c2cc(Cl)ccc2O1

Result:
1. > 8.00
2. > 8.00
3. 6.60 to 7.30

Report pEC50 for every entry below.
1. O=C(NC12CC(n3cc(NCCOC(F)(F)F)cn3)(C1)C2)[C@H]1C[C@@H](O)c2cc(Cl)ccc2O1
2. O=C(NC12CC(n3cc(OCCOC(F)(F)F)cn3)(C1)C2)[C@H]1C[C@@H](O)c2cc(F)ccc2O1
3. O=C(NC12CC(c3ccc(C(=O)N4CC(OC(F)(F)F)C4)nc3)(C1)C2)[C@H]1C[C@@H](O)c2cc(Cl)ccc2O1
4. O=C(NC12CC(n3cc(-c4ccc(OC(F)(F)F)cn4)cn3)(C1)C2)[C@H]1C[C@@H](O)c2cc(C(F)(F)F)ccc2O1
5. O=C(NC12CC(n3cc(-c4cnn(C(F)(F)F)c4)cn3)(C1)C2)[C@H]1C[C@@H](O)c2cc(Cl)c(F)cc2O1

Result:
7.30 to 8.00
7.30 to 8.00
> 8.00
> 8.00
> 8.00
